Tested on: FMOC28 (patient-derived low-grade serous ovarian cancer cells)
RUN_DESCRIPTION: drug sensitivity score (DSS3, normalised partial AUC of % inhibition dose-response) (DSS (score)); higher = more sensitive (stronger inhibition of viability); extreme values may be limits of the assay
RUN_CONDITIONS: 72 h; library: FO5A; assay format: 2D, 384-well, CellTiter-Glo
Property: drug sensitivity score; scope: individual compounds
Give the figure by itself; no unit, no explanation.

See these solved cases before continuing.
COMPOUND	ENDPOINT_NAME	OBSERVED_RESULT
C[C@@H]1CCN(C(=O)CC#N)C[C@@H]1N(C)c1ncnc2[nH]ccc12 [Tofacitinib]	drug sensitivity score	0.7
O=C(NCc1ccncc1)C12CC3CC(C1)CC(c1ccc(Cl)cc1)(C3)C2	drug sensitivity score	4.8

For this compound ( CCCc1cc(C)[nH]c(=O)c1CNC(=O)c1cc(-c2ccnc(N3CCN(C)CC3)c2)cc2c1cnn2C(C)C [GSK343] ), measured drug sensitivity score is 2

For this compound ( `CC[C@@H]1[C@H](F)C(=O)N[C@@H]1COc1nccc2cc(C(N)=O)c(OC)cc12` ), measured drug sensitivity score is 0

---

Tested on: FMOC14 (patient-derived high-grade serous ovarian cancer cells)
RUN_DESCRIPTION: drug sensitivity score (DSS3, normalised partial AUC of % inhibition dose-response) (DSS (score)); higher = more sensitive (stronger inhibition of viability); extreme values may be limits of the assay
RUN_CONDITIONS: 72 h; library: FO5A; assay format: 2D, 384-well, CellTiter-Glo
ENDPOINT_NAME: drug sensitivity score
Give the figure by itself; no unit, no explanation.

COMPOUND	ENDPOINT_NAME	OBSERVED_RESULT
CO[C@@H](C(=O)N1Cc2[nH]nc(NC(=O)c3ccc(N4CCN(C)CC4)cc3)c2C1)c1ccccc1	drug sensitivity score	1.4
CC(=O)[C@]1(O)Cc2c(O)c3c(c(O)c2[C@@H](O[C@H]2C[C@H](N)[C@H](O)[C@H](C)O2)C1)C(=O)c1ccccc1C3=O	drug sensitivity score	6.1
Cc1cc(Nc2cc(N3CCN(C)CC3)nc(Sc3ccc(NC(=O)C4CC4)cc3)n2)n[nH]1	drug sensitivity score	0.6
N#Cc1ccnc(N2C(=O)CC[C@H]2C(=O)N(c2cncc(F)c2)[C@H](C(=O)NC2CC(F)(F)C2)c2ccccc2Cl)c1	drug sensitivity score	0
Cc1cc(-c2nc(-c3ccc(OC(F)(F)F)cc3)no2)nn1Cc1ccnc(N2CCN(C3CC3)CC2)c1	drug sensitivity score	3.1

// switching to the query compound
For this compound ( `C=CC(=O)Nc1cccc(Nc2nc(Nc3ccc(OCCOC)cc3)ncc2F)c1` ), measured drug sensitivity score is 0

---

Property: drug sensitivity score; scope: individual molecules
System: FMOC06 (patient-derived mucinous ovarian cancer cells)
RUN_DESCRIPTION: drug sensitivity score (DSS3, normalised partial AUC of % inhibition dose-response) (DSS (score)); higher = more sensitive (stronger inhibition of viability); extreme values may be limits of the assay
RUN_CONDITIONS: 72 h; library: FO5A; assay format: 2D, 384-well, CellTiter-Glo

See these solved cases before continuing.
MOLECULE	SYSTEM	OBSERVED_RESULT
C1=N/C2=N/c3ccc(OCCN4CCCC4)c(c3)COC/C=C/COCc3cccc(c3)C(=C1)N2	FMOC06	7.6
Cc1nc(=O)c2cc(CN(C)c3ccc(C(=O)N[C@@H](CCC(=O)O)C(=O)O)s3)ccc2[nH]1	FMOC06	0
O=C1CCC(N2C(=O)c3ccccc3C2=O)C(=O)N1 (stereo unspecified) [Thalidomide]	FMOC06	0
Cc1nc(-c2cn3c(n2)-c2ccc(-c4cnn(C(C)(C)C(N)=O)c4)cc2OCC3)n(C(C)C)n1	FMOC06	9.6
CN1CC[C@@H](NC(=O)Nc2ccc(C#N)cc2)C[C@@H]1c1nc2ccccc2[nH]1	FMOC06	0

// switching to the query molecule
For this molecule ( `COc1cc2nccc(Oc3ccc(NC(=O)Nc4cc(C)on4)c(Cl)c3)c2cc1OC` ), measured drug sensitivity score is 2.3
